# subjectOfTest: Glutamate carboxypeptidase 2 (Homo sapiens, UniProt Q04609)
# Sequence (Q04609 whole entry): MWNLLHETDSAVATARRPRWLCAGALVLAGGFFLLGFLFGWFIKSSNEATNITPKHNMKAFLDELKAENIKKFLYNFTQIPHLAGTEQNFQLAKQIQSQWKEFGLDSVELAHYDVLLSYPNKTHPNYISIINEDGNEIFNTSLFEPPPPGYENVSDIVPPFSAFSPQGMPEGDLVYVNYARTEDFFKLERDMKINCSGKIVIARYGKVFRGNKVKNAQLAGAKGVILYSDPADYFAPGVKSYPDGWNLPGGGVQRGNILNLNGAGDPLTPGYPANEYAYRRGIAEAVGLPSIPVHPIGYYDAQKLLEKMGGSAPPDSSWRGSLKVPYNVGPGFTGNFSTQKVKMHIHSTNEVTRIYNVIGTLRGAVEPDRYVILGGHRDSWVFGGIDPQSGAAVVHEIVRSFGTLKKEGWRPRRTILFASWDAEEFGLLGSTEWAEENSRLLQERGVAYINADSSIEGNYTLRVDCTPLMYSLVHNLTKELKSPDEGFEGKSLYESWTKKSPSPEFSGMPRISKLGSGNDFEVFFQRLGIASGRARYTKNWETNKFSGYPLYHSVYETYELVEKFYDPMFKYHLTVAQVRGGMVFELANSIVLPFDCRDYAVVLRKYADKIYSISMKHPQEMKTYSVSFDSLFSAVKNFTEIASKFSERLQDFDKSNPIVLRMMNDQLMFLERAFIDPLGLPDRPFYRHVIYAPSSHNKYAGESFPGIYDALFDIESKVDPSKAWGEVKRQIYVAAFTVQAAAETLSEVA
# testDetails: Inhibition of PSMA in human LNCaP cell extracts using NAAG as substrate by amplex red reagent based assay
resultType: IC50 (nM)

1: COc1ccc(CN(CCCC[C@H](NC(=O)N[C@@H](CCC(=O)O)C(=O)O)C(=O)O)C(=O)CCCCCNC(=O)CCC(=O)N[C@@H](Cc2ccccc2)C(=O)N[C@@H](Cc2ccccc2)C(=O)NCCCN=[N+]=[N-])cc1
2: [N-]=[N+]=NCCCNC(=O)[C@H](Cc1ccc(O)cc1)NC(=O)[C@H](Cc1ccccc1)NC(=O)CCC(=O)NCCCCCC(=O)N(CCCC[C@H](NC(=O)N[C@@H](CCC(=O)O)C(=O)O)C(=O)O)Cc1ccc(C(=O)O)cc1
3: [N-]=[N+]=NCCCNC(=O)[C@H](Cc1ccccc1)NC(=O)[C@H](Cc1ccccc1)NC(=O)CCC(=O)NCCCCCC(=O)N(CCCC[C@H](NC(=O)N[C@@H](CCC(=O)O)C(=O)O)C(=O)O)Cc1ccc([N+](=O)[O-])cc1
Query :: Please list these compounds in decreasing order of IC50. Present the labels in the sequence the task asks for.
Result :: 1, 3, 2

###

# subjectOfTest: Glutamate carboxypeptidase 2 (Homo sapiens)
# testDetails: Inhibition of PSMA in human LNCaP cell extracts using NAAG as substrate by amplex red reagent based assay
pIC50: −log10 of the molar value.
resultType: pIC50

Observe how each entry below is paired with its result.
[[record]]
structureassmiles = "COc1ccc(CN(CCCC[C@H](NC(=O)N[C@@H](CCC(=O)O)C(=O)O)C(=O)O)C(=O)CCCCCNC(=O)CCC(=O)N[C@@H](Cc2ccccc2)C(=O)N[C@@H](Cc2ccccc2)C(=O)NCCCN=[N+]=[N-])cc1OC"
assayresult = 7.06

[[record]]
structureassmiles = "COc1ccccc1CN(CCCC[C@H](NC(=O)N[C@@H](CCC(=O)O)C(=O)O)C(=O)O)C(=O)CCCCCNC(=O)CCC(=O)N[C@@H](Cc1ccccc1)C(=O)N[C@@H](Cc1ccccc1)C(=O)NCCCN=[N+]=[N-]"
assayresult = 7.42

[[record]]
structureassmiles = "[N-]=[N+]=NCCCNC(=O)[C@H](Cc1ccccc1)NC(=O)[C@H](Cc1ccccc1)NC(=O)CCC(=O)NCCCCCC(=O)N(CCCC[C@H](NC(=O)N[C@@H](CCC(=O)O)C(=O)O)C(=O)O)Cc1cccc([N+](=O)[O-])c1"
assayresult = 7.64


I: [N-]=[N+]=NCCCNC(=O)[C@H](Cc1ccccc1)NC(=O)[C@H](Cc1ccccc1)NC(=O)CCC(=O)NCCCCCC(=O)N(CCCC[C@H](NC(=O)N[C@@H](CCC(=O)O)C(=O)O)C(=O)O)Cc1ccccc1[N+](=O)[O-]
II: [N-]=[N+]=NCCCNC(=O)[C@H](Cc1ccc(O)c([N+](=O)[O-])c1)NC(=O)[C@H](Cc1ccccc1)NC(=O)CCC(=O)NCCCCCC(=O)N(CCCC[C@H](NC(=O)N[C@@H](CCC(=O)O)C(=O)O)C(=O)O)Cc1cccc(Cl)c1
Query :: When their pIC50 values are compared, which is larger, I or II ? Your choice should be expressed through its label.
Result :: II
(II: 8.82, I: 7.80)

###

# subjectOfTest: UniProt Q04609
# testDetails: Inhibition of PSMA in human LNCaP cell extracts using NAAG as substrate by amplex red reagent based assay
resultType: IC50 (nM)

P: [N-]=[N+]=NCCCNC(=O)[C@H](Cc1ccc(O)cc1)NC(=O)[C@H](Cc1ccccc1)NC(=O)CCC(=O)NCCCCCC(=O)N(CCCC[C@H](NC(=O)N[C@@H](CCC(=O)O)C(=O)O)C(=O)O)Cc1ccccc1[N+](=O)[O-]
Q: [N-]=[N+]=NCCCNC(=O)[C@H](Cc1ccccc1)NC(=O)[C@H](Cc1ccccc1)NC(=O)CCC(=O)NCCCCCC(=O)N(CCCC[C@H](NC(=O)N[C@@H](CCC(=O)O)C(=O)O)C(=O)O)Cc1ccc(C(=O)O)cc1
Query :: When their IC50 values are compared, which is larger, P or Q ? Your choice should be expressed through its label.
Result :: P
